- assay-summary: label from the status in PepcDB records
measured-property: protein production

Query: Recorded protein production for `MAINRSSDHESDENTRLYHPYQNYQVPIKSQYLYKLPTSPEFLFTEESLKQRRSWGENLTFYTGTGYLAGSVAGASAGIFSGIKSFENGDTTKLKINRILNSSGQAGRTWGNRVGIVGLIYAGIESGVVAVTDKDDVWTSVVAGLGTGAVFRAARGVRSAAVAGAFGGIAAGAVVAGKQVFKRDPERGSITLDP` , please?
Result: failed

Query: Recorded protein production for `MILKRAYDVTPQKISTDKVRGVRKRVLIGLKDAPNFVMRLFTVEPGGLIDRHSHPWEHEIFVLKGKLTVLKEQGEETVEEGFYIFVEPNEIHGFRNDTDSEVEFLCLIPKEGGE` , please?
Result: not failed

Query: Recorded protein production for `MPIPLEKQNKERRQKILTCSLDLFIEKGYYNTSIRDIIALSEVGTGTFYNYFVDKEDILKNLLEDFAKQIISSISEYYLVEKDLYERFIETKRLTMEVFAQNETLSEIYSRVAGSSAPIDQCLKQFEDRLLEFYSRNIEYGIKKGVFKNVPVSPIAHSILAIEKFSLYKWVVLKAITKEEMIEMVLSFHKTLAVGLLVVND` , please?
Result: not failed

Query: Recorded protein production for `MITQNIESLNNIAKIQHAANTDYLTDLANRRAFFRSAESRIKEYINKKVPYCLAMIDVDFFKKVNDTYGHDSGDQVLKVIALYMRKHFGAGLTARLGGEEFAVLLHGLDADYLHNKLDDFRREIAVSSIPAGDTSISITLSLGVVFDSEDELSKQMNEADNALYAAKENGRNQIVVFGAELDDLEHHHHHH` , please?
Result: not failed

Query: Recorded protein production for `MNYRLIPALFLIVMGALFLLDNLGLAHMDVGNLIATWWPVFLIAAGVRQLLRYRQRAAATC` , please?
Result: failed

Query: Recorded protein production for `MLDFYALEDLLTPEEKEVQKAARRFLEKEALPHIRDWWEEGVFPTHLIPRFAELGFLGPTLPPEYGGAGVSSAAYGLICYELERVDSGLRSFVSVQSSLVMYPIYAYGSEEQKREFLPKLARGEMVGCFGLTEPDGGSDPYGNMKTRARREGDTWVLNGTKMWITNGNLAHLAVIWAKDEGGEVLGFLVPTDTPGFQAREVKRKMSLRASVTSELVLEEVRVPESLRLPKALGLKAPLSCLTQARFGIAWGAMGALEAVYEEAVAFAKSRSTFGEPLAKKQLVQAKLAEMLAWHTEGLLLAWRLARLKDEGKLTPAQVSLAKRQNVWKALQAARMARDILGGSGITLEYHAIRHMLNLETVYTYEGTHDVHTLVLGREITGLNAF` , please?
Result: not failed

Query: Recorded protein production for `LPSFRHKVFALVLVGVFVGLGAYLVYMSKAYSYLSDDPRVCINCHVMGPYYATWQHSSHAMRATCNDCHVPHNSIFSKYYFKASDGLRHSYVFTMRNEPQRMQAISASQAVIYDNCVRCHAQLNQEFVRTGMLTRADIRTAEEKACWDCHRDVPHGGKNS` , please?
Result: failed

Next:
Query: Recorded protein production for `AGGTTPAELRAAAADFTWLLNRFATETAGVVDAIAVSSDGLLIAVSELREHADSERLAAIVSGITSLAAGASGNYGLGGLNKVIIDLEGGHVLVSAIGSGAVLGVVTDKEAKLGNIAYEMTLFANRAGAALS` , please?
Result: failed
